Reference for the values: paper PMC5700166

# measuredOn: GST-Aq-NF-kB (Amphimedon queenslandica, UniProt A9Y5G7 2-389)
# Sequence: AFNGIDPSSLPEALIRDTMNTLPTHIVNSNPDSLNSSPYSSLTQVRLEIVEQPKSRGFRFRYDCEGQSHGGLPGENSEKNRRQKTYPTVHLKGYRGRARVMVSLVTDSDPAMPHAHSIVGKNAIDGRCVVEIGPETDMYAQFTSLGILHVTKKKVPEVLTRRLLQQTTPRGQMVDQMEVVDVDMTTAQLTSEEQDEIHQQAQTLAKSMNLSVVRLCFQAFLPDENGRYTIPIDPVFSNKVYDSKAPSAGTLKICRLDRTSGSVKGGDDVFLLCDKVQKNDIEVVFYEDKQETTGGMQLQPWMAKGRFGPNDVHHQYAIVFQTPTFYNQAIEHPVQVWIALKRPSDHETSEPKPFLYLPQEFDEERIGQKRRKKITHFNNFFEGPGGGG
# test: protein-binding microarray (PBM); PBM: ~300 nM protein, 6 mM HEPES pH 7.8, 80 mM KCl, 0.5 mM EDTA, 0.5 mM EGTA, 6% glycerol, 35 ng/ul poly-dIdC, 1% milk, 1 h, room temperature; Ap Aiptasia and Nv Nematostella (sea anemones) / Co Capsaspora / Aq Amphimedon (sponge) / Dm Drosophila / Hu human; RHD is the Rel homology domain; high values mean tight binding
# cond: dsDNA, one strand shown
// classify: if (binding signal < 5 z-score) satisfied else not satisfied

{"seqString": "CCGATTAACATCAAGGGGAAGGGTGATGTTAATCGGGTCTTGATTCGCTTGACGCTGCTG", "assignedLabel": "satisfied"}
{"seqString": "CCGATTAACATCAAGGATCCCCCTGATGTTAATCGGGTCTTGATTCGCTTGACGCTGCTG", "assignedLabel": "not satisfied"}
{"seqString": "CCGATTAACATCAGGGGAGATTATGATGTTAATCGGGTCTTGATTCGCTTGACGCTGCTG", "assignedLabel": "satisfied"}
{"seqString": "CCGATTAACATCAGGAAATCCACTGATGTTAATCGGGTCTTGATTCGCTTGACGCTGCTG", "assignedLabel": "satisfied"}
{"seqString": "CCGATTAACATCAGGGCGTCCCCTGATGTTAATCGGGTCTTGATTCGCTTGACGCTGCTG", "assignedLabel": "not satisfied"}
{"seqString": "CCGATTAACATCAGACTTTCCCATGATGTTAATCGGGTCTTGATTCGCTTGACGCTGCTG", "assignedLabel": "satisfied"}

Lab note: confirm whether the reported binding signal for this sequence is below 5 z-score, equality not counting. sequence: CCGATTAACATCACGGAATATCCTGATGTTAATCGGGTCTTGATTCGCTTGACGCTGCTG
satisfied

Next sequence: CCGATTAACATCAGGAAATTCCCTGATGTTAATCGGGTCTTGATTCGCTTGACGCTGCTG
not satisfied

Next sequence: CCGATTAACATCAAGTAAATCCCTGATGTTAATCGGGTCTTGATTCGCTTGACGCTGCTG
satisfied
